# System: DU145 tumor cells
# experiment.notes: MTT growth inhibition of DU145 cells, 72 h
# Assay type: cell-based, human
# reported.conditions: Table 5; DU145, 72 h, MTT
# Procedure: DU145 cells were inoculated in RPM11640 medium containing 10% calf serum, incubated at 37° C., 5% CO2 in CO2 incubator, and passaged every 2-3 days. In this experiment, cells were grown in logarithmic growth phase. […] The DU145 cell in logarithmic growth phase were selected, centrifuged, counted, and formulated into a cell suspension (2.5×10^4/ml) with RPM11640 medium containing 10% calf serum. […] After incubating for 72 hours, the viability of cells was measured by MTT assay. […]
Catalogue of IC90 values

molecule | qual | IC90 / µM
CN1C(=O)C(=C2Nc3ccc(Cl)cc3C2=NO)c2cnccc21 | = | 12.2
CCN1C(=O)C(=C2Nc3ccc(Br)cc3C2=NO)c2cnccc21 | = | 14
CCCCN1C(=O)C(=C2C(=O)Nc3ccc(Br)cc32)c2cnccc21 | = | 77
CCN1C(=O)C(=C2Nc3ccc(Cl)cc3C2=NO)c2cnccc21 | = | 6.8
CCN1C(=O)C(=C2Nc3ccccc3C2=NO)c2cnccc21 | = | 22
CC(C)N1C(=O)C(=C2Nc3ccc(Br)cc3C2=NO)c2cnccc21 | = | 7
CC(C)N1C(=O)C(=C2Nc3ccc(Cl)cc3C2=NO)c2cnccc21 | = | 11.5
CCCCN1C(=O)C(=C2C(=O)Nc3ccc(F)cc32)c2cnccc21 | > | 100
CC(=O)OCC1OC(N2C(=O)C(=C3C(=O)Nc4ccccc43)c3cnccc32)C(OC(C)=O)C1OC(C)=O (stereo not shown) | = | 44
CCN1C(=O)C(=C2C(=O)Nc3ccc(F)cc32)c2cnccc21 | = | 87
